Molecular target: Endoribonuclease toxin MazF (Escherichia coli (strain K12), UniProt P0AE70)
Sequence (P0AE70 whole entry): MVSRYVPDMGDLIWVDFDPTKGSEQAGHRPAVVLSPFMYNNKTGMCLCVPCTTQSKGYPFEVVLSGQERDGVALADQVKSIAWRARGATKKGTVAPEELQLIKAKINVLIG
Assay: activation of MazEF endoribonuclease cleavage – biochemical, fluorescence, single-stranded RNA substrate, uHTS hits, dose response (AID 588481)
quantity-name: EC50 (µM)
Kindly provide the numeric value in µM only, without the unit symbol.

compound	assay-target	EC50 (µM)
Cc1ccc(Cl)c2c1=NC(=O)C=2NNc1ccccc1	Endoribonuclease toxin MazF (Escherichia coli (strain K12), UniProt P0AE70)	19.1

Would you kindly look at the next entry?
query: Look up EC50 of N#Cc1ccc(-n2c(O)c3[nH][nH]c(C(=O)c4ccc5ccccc5n4)c-3c2=O)cc1 and report it.
result: 15.1
